# System: barnyardgrass (Echinochloa crus-galli (L.) Beauv.) (BG)
# Assay Procedure: Preemergence herbicide test, soil drench, barnyardgrass
# Type: in vivo
# Condition Details: Echinochloa crus-galli, 336 h, 10 lbs/A (11.2 kg/ha) soil drench, two weeks after treatment, vs untreated checks, read-out: Percent Weed Control BG
Assay Metric: pest or weed control at 11208.5 g/ha (%)

compound=COc1cccc(C2=NC(C(F)(F)F)(C(F)(F)F)N=C(C(F)(F)C(F)(F)F)O2)c1 quantity_unit=% numeric_result=0
compound=FC(F)(F)C(F)(F)C1=NC(C(F)(F)F)(C(F)(F)F)N=C(c2cccc(Cl)c2)O1 quantity_unit=% numeric_result=100
compound=Cc1cccc(C2=NC(C(F)(F)F)(C(F)(F)F)N=C(C(F)(F)C(F)(F)F)O2)c1 quantity_unit=% numeric_result=0
compound=FC(F)(F)C1=NC(C(F)(F)F)(C(F)(F)F)N=C(c2cccc(Cl)c2)O1 quantity_unit=% numeric_result=100
compound="FC(F)(F)C(F)(F)C(F)(F)C1=NC(C(F)(F)F)(C(F)(F)F)N=C(c2ccccc2)O1 [reference compound]" quantity_unit=% numeric_result=0
compound=Fc1ccccc1C1=NC(C(F)(F)F)(C(F)(F)F)N=C(C(F)(F)F)O1 quantity_unit=% numeric_result=0
compound=FC(F)(F)C(F)(F)C1=NC(C(F)(F)F)(C(F)(F)F)N=C(c2ccccc2)O1 quantity_unit=% numeric_result=0
compound=O=[N+]([O-])c1ccc(C2=NC(C(F)(F)F)(C(F)(F)F)N=C(C(F)(F)F)O2)cc1 quantity_unit=% numeric_result=80
compound=FC(F)(F)C(F)(F)C1=NC(C(F)(F)F)(C(F)(F)F)N=C(c2ccccc2Cl)O1 quantity_unit=% numeric_result=0
compound=FC(F)(F)C(F)(F)C1=NC(C(F)(F)F)(C(F)(F)F)N=C(c2ccc(Cl)cc2)O1 quantity_unit=% numeric_result=90
compound=Fc1ccc(C2=NC(C(F)(F)F)(C(F)(F)F)N=C(C(F)(F)C(F)(F)F)O2)cc1 quantity_unit=% numeric_result=100
compound=FC(F)(F)Oc1ccc(C2=NC(C(F)(F)F)(C(F)(F)F)N=C(C(F)(F)F)O2)cc1 quantity_unit=% numeric_result=100
compound=FC(F)(F)C(F)(F)C(F)(F)C1=NC(C(F)(F)F)(C(F)(F)F)N=C(c2cccc(Cl)c2)O1 quantity_unit=% numeric_result=100
compound=FC(F)(F)C(F)(F)C1=NC(C(F)(F)F)(C(F)(F)F)N=C(c2cc(Cl)cc(Cl)c2)O1 quantity_unit=% numeric_result=100
compound=FC(F)(F)C1=NC(C(F)(F)F)(C(F)(F)F)N=C(c2ccccc2)O1 quantity_unit=% numeric_result=0
compound=FC(F)(F)C1=NC(C(F)(F)F)(C(F)(F)F)N=C(c2ccc(Cl)cc2)O1 quantity_unit=% numeric_result=100
compound=FC(F)(F)C(F)(F)C1=NC(C(F)(F)F)(C(F)(F)F)N=C(c2ccc(Br)cc2)O1 quantity_unit=% numeric_result=90
compound=O=Cc1ccc(C2=NC(C(F)(F)F)(C(F)(F)F)N=C(C(F)(F)C(F)(F)F)O2)cc1 quantity_unit=% numeric_result=100
